B1: HDV Ribozyme (parent)
chain: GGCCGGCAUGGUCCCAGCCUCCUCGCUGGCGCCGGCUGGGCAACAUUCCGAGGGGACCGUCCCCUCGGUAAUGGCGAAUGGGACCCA

Variants of: B1
Experiment: self-cleavage, relative activity (ratio to wild type); higher = more cleavage; co-transcriptional
Catalogue of self-cleavage readings, one per entry.

// worked examples, self-cleavage included
GGCCGGCAUGGUCCCAGCCUCCUCGCUGGCGCCGGCUGGGCAACGUUCCGAGGGGACCGUCCCCUUGGUAAUGGCGAAUGGGACCCA 0.92
GGCCGGCAUGGUCCCAGCCUCCUCGCUUGCGCCGGCUGGGCAACAUUCCGAGGGGACCUUCCCCUCGGUAAUGGCGAAUGGGACCCA 0.106
GGCCGGCAUGGUCCCAGCCUGCUCGCUGGCGCCGGCUGGGCAACAUUCCGAGGGGACCGUCCCCUCGUUAAUGGCGAAUGGGACCCA 0

In: Give its self-cleavage value. Item: GGCCGGCAUGGUCCCAGCCUCCUCGCUGGCGCCGGCCGGGCAACAUUCCGAGGGGACCGUCCCCUUGGUAAUGGCGAAUGGGACCCA
Out: 1.01

In: Give its self-cleavage value. Item: GGCCGGCAUGGUCCCAGCCUCCUCGCGGGCGCCGGCAGGGCAACAUUCCGAGGGGACCGUCCCCUCGGUAAUGGCGAAUGGGACCCA
Out: 0.119

In: Give its self-cleavage value. Item: GGCCGGCAUGGUCCCAGCCUCCUCGCUGGCGCCGGCUGGGCAACAUUCCGAGGGGACCGUCCUCUCGGUAGUGGCGAAUGGGACCCA
Out: 1.03
